TARGET DESC: human CGRP receptor (human CRLR / human RAMP1 heterodimer) (human, UniProt Q16602 23-461; O60894 27-148)
Sequence (Q16602 23-461 limits assumed, chain 1 of 2): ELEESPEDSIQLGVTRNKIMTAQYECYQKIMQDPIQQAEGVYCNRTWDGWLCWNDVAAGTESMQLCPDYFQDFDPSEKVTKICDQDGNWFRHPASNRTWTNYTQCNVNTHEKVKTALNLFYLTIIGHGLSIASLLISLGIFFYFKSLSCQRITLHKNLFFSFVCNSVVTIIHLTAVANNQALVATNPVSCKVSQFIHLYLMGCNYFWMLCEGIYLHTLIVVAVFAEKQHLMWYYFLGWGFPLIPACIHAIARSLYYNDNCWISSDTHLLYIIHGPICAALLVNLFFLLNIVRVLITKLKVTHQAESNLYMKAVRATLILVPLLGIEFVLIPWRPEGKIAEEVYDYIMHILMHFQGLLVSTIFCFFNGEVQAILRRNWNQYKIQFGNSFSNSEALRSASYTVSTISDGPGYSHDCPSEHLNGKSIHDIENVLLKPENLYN
Sequence (O60894 27-148 limits assumed, chain 2 of 2): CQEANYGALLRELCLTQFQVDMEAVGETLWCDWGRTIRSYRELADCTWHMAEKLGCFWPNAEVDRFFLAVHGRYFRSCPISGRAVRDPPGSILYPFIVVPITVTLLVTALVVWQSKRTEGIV
EXPERIMENTAL DETAILS: cell-based or functional assay
A collection of binders and their measured Average IC50 (nM), cell-based cAMP assay, SK-N-MC cells, 3 nM human α-CGRP
The answer is to be given in nM; state only the numeric part.

Worked examples, 2 binders total:
anti-CGRP receptor variant antibody 05, bivalent monoclonal antibody (antibody, human IgG1, lambda, N297G, V domains shown) VH: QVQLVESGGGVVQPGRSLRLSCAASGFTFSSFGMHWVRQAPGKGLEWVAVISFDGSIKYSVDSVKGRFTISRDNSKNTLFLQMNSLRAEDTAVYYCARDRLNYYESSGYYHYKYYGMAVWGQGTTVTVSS VL: QSVLTQPPSVSAAPGQKVTISCSGSFSNIGRSTVSWYQQLPGTAPKLLIYDNRWRAGGIPDRFSGSKSGTSATLGITGLQTGDEADYYCGTWDYQWKAVVFGGGTKLTVLG = 0.2
anti-CGRP receptor variant antibody 01, bivalent monoclonal antibody (antibody, human IgG1, lambda, N297G, V domains shown) VH: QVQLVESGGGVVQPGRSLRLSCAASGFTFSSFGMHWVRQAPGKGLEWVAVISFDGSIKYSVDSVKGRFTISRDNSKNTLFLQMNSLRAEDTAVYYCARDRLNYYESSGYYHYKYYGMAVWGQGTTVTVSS VL: QSVLTQPPSVSAAPGQKVTISCSGSYSNIGRYSVSWYQQLPGTAPKLLIYDNNKRPSGIPDRFSGSKSGTSATLGITGLQTGDEADYYCGTWDSRLSAVVFGGGTKLTVLG = 0.14

[Q] Output measured Average IC50 (nM), cell-based cAMP assay, SK-N-MC cells, 3 nM human α-CGRP for this item: anti-CGRP receptor variant antibody 09, bivalent monoclonal antibody (antibody, human IgG1, lambda, N297G, V domains shown) VH: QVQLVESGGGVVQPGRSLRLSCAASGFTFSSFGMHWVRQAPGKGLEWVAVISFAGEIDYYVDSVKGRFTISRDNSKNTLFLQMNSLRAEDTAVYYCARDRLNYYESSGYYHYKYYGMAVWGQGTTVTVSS VL: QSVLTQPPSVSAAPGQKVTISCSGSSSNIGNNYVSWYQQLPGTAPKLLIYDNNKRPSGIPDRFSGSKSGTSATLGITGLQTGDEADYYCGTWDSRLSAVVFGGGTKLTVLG
[A] 0.86

These entries and their values trace back to patent US20220363770A1.
